# Target Entity: bovine trypsin (Bos taurus, UniProt P00760)
# Construct: purchased Sigma-Aldrich T8003
# Sequence (P00760 24-246): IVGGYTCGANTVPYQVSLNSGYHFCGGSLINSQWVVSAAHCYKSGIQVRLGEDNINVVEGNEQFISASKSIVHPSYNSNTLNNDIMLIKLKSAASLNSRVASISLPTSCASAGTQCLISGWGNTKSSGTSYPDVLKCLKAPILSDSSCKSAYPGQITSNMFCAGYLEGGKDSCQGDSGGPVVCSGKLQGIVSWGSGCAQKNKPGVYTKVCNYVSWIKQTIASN
# Protocol Summary: Trypsin inhibition assay (proteolytic activity on BApNA)
# Type: biochemical
# Condition Summary: Concentration 0.512 nM; fraction of uninhibited activity; read-out: mean (Figure 3c, dose-response, relative trypsin activity)
Assay Endpoint: remaining activity at 0.000512 µM (%)

- Compound: "N=C(N)c1ccc(CN)cc1 [4-Aminomethyl benzamidine, 4-aminomethyl benzamidine, reference compound]"
  Display Unit: "%"
  Endpoint Result: 96.5
- Compound: "S=C=Nc1ccccc1I [Compound B, 2-iodophenyl isothiocyanate, reference compound]"
  Display Unit: "%"
  Endpoint Result: 102
- Compound: "N=C(N)c1ccc(CNCc2ccc(C(=O)NCCNC(=S)Nc3cccc(I)c3)cc2)cc1"
  Display Unit: "%"
  Endpoint Result: 104
- Compound: "N=C(N)c1ccc(CNC(=O)C2CCC(C(=O)NCCNC(=S)Nc3cccc(I)c3)CC2)cc1 (centres unmarked)"
  Display Unit: "%"
  Endpoint Result: 99.6
- Compound: "N=C(N)c1ccc(CNC(=S)Nc2cccc(I)c2)cc1"
  Display Unit: "%"
  Endpoint Result: 110

* * *

# Target Entity: MMP-9 (Homo sapiens, UniProt P14780)
# Construct: purchased Sino Biological 10327-HNAH
# Sequence (P14780 107-707 limits assumed): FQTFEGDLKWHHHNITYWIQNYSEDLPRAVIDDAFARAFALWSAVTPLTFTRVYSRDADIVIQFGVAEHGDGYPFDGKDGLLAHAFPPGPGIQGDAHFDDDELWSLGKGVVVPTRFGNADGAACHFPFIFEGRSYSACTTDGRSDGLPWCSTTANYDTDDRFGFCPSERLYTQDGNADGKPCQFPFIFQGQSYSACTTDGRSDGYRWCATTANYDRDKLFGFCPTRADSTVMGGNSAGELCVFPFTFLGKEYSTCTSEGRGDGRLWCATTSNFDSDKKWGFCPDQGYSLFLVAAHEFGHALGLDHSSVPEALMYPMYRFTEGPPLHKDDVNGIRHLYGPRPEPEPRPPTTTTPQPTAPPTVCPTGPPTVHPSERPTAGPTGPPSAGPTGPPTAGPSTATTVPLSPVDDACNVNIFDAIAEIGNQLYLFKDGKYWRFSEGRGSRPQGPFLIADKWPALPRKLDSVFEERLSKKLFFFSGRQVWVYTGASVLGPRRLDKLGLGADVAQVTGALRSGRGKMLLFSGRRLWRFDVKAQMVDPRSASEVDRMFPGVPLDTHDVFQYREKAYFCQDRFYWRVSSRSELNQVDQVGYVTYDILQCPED
# Protocol Summary: MMP-9 inhibition assay (fluorogenic peptide substrate)
# Assay type: biochemical
# Set-up: scale not given here
# Condition Summary: MMP-9; concentration 0.12 µM
Assay Endpoint: remaining enzyme activity (% of control)

- Mol: "Cn1c(O)nc2cc(C(=O)NCCOCCOCCNC(=O)CNC(=O)NC34CC5CC(CC(C5)C3)C4)cnc21"
  Target Entity: "MMP-9 (Homo sapiens, UniProt P14780)"
  Endpoint Result: 99.87
- Mol: "Cc1cc(=O)[nH]c(-n2nc(C)c(CCC(=O)NCCNC(=O)c3cnc4c(c3)nc(O)n4C)c2C)n1"
  Target Entity: "MMP-9 (Homo sapiens, UniProt P14780)"
  Endpoint Result: 100.10
- Mol: "Cc1cc(=O)[nH]c(-n2nc(C)c(CCC(=O)NCCNC(=O)CC(=O)C=CCCCCNC(=O)c3cnc4c(c3)nc(O)n4C)c2C)n1"
  Target Entity: "MMP-9 (Homo sapiens, UniProt P14780)"
  Endpoint Result: 100.00
- Mol: "Cc1cc(=O)[nH]c(-n2nc(C)c(CCC(=O)NCCSCC(=O)NCCNC(=O)c3cnc4c(c3)nc(O)n4C)c2C)n1"
  Target Entity: "MMP-9 (Homo sapiens, UniProt P14780)"
  Endpoint Result: 99.26
- Mol: "Cn1c(O)nc2cc(C(=O)NCCSCC(=O)NCC34CC5CC(CC(C5)C3)C4)cnc21"
  Target Entity: "MMP-9 (Homo sapiens, UniProt P14780)"
  Endpoint Result: 103.98
- Mol: "Cc1cc(=O)[nH]c(-n2nc(C)c(CCC(=O)NCCOCCOCCNC(=O)c3cnc4c(c3)nc(O)n4C)c2C)n1"
  Target Entity: "MMP-9 (Homo sapiens, UniProt P14780)"
  Endpoint Result: 93.04
- Mol: "Cc1cc(=O)[nH]c(-n2nc(C)c(CCC(=O)NCCCCCCCCNC(=O)c3cnc4c(c3)nc(O)n4C)c2C)n1"
  Target Entity: "MMP-9 (Homo sapiens, UniProt P14780)"
  Endpoint Result: 100.31

* * *

# Target Entity: MMP-9 (Homo sapiens, UniProt P14780)
# Construct: purchased Sino Biological 10327-HNAH
# Protocol Summary: MMP-9 inhibition assay (fluorogenic peptide substrate)
# Assay type: biochemical
# Design: scale not given here
# Condition Summary: MMP-9; concentration 31.25 µM
Assay Endpoint: remaining enzyme activity (% of control)

Example results:
- Mol: "Cc1cc(=O)[nH]c(-n2nc(C)c(CCC(=O)NCCNC(=O)c3cnc4c(c3)nc(O)n4C)c2C)n1"
  Assay Endpoint: "remaining enzyme activity (% of control)"
  Endpoint Result: 93.30
- Mol: "Cn1c(O)nc2cc(C(=O)NCCOCCOCCNC(=O)CNC(=O)NC34CC5CC(CC(C5)C3)C4)cnc21"
  Assay Endpoint: "remaining enzyme activity (% of control)"
  Endpoint Result: 87.32
- Mol: "Cn1c(O)nc2cc(C(=O)NCCCC/C=C/C(=O)CC(=O)NCC34CC5CC(CC(C5)C3)C4)cnc21"
  Assay Endpoint: "remaining enzyme activity (% of control)"
  Endpoint Result: 97.31
- Mol: "Cc1cc(=O)[nH]c(-n2nc(C)c(CCC(=O)NCCNC(=O)CC(=O)C=CCCCCNC(=O)c3cnc4c(c3)nc(O)n4C)c2C)n1"
  Assay Endpoint: "remaining enzyme activity (% of control)"
  Endpoint Result: 65.00

(A) Cc1cc(=O)[nH]c(-n2nc(C)c(CCC(=O)NCCOCCOCCNC(=O)c3cnc4c(c3)nc(O)n4C)c2C)n1
(B) Cn1c(O)nc2cc(C(=O)NCCSCC(=O)NCC34CC5CC(CC(C5)C3)C4)cnc21
(Q) Field: entry with larger remaining enzyme activity (% of control) (options A / B ). Respond using the label that marks the chosen record.
(A) B
(B: 108.11, A: 75.00)

* * *

# Target Entity: bovine trypsin (Bos taurus)
# Construct: purchased Sigma-Aldrich T8003
# Protocol Summary: Trypsin inhibition assay (proteolytic activity on BApNA)
# Assay type: biochemical
# Condition Summary: Concentration 2.56 nM; fraction of uninhibited activity; read-out: mean (Figure 3c, dose-response, relative trypsin activity)
Assay Endpoint: remaining activity at 0.00256 µM (%)

- Molecule: "S=C=Nc1ccccc1I [Compound B, 2-iodophenyl isothiocyanate, reference compound]"
  Target Entity: "bovine trypsin (Bos taurus)"
  remaining activity at 0.00256 µM, %: 94.8
- Molecule: "N=C(N)c1ccc(CNC(=O)C2CCC(C(=O)NCCNC(=S)Nc3cccc(I)c3)CC2)cc1 (centres unmarked) [Compound T-3]"
  Target Entity: "bovine trypsin (Bos taurus)"
  remaining activity at 0.00256 µM, %: 98.7
- Molecule: "N=C(N)c1ccc(CN)cc1 [4-Aminomethyl benzamidine, 4-aminomethyl benzamidine, reference compound]"
  Target Entity: "bovine trypsin (Bos taurus)"
  remaining activity at 0.00256 µM, %: 102
- Molecule: "N=C(N)c1ccc(CNCc2ccc(C(=O)NCCNC(=S)Nc3cccc(I)c3)cc2)cc1 [Compound T-2]"
  Target Entity: "bovine trypsin (Bos taurus)"
  remaining activity at 0.00256 µM, %: 106
- Molecule: "N=C(N)c1ccc(CNC(=S)Nc2cccc(I)c2)cc1 [Compound T-0]"
  Target Entity: "bovine trypsin (Bos taurus)"
  remaining activity at 0.00256 µM, %: 107

* * *

# Target Entity: bovine carbonic anhydrase II (CAII) (Bos taurus)
# Construct: purchased Sigma-Aldrich C7749
# Sequence (P00921 whole entry): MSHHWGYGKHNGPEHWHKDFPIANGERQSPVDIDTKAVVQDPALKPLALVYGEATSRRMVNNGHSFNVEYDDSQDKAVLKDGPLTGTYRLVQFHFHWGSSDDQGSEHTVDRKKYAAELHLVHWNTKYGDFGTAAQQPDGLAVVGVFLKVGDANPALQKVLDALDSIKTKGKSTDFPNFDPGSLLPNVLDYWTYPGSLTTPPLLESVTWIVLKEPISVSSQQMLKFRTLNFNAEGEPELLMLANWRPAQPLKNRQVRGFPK
# Protocol Summary: Carbonic anhydrase II inhibition assay (esterase activity on p-nitrophenyl acetate)
# Type: biochemical
# Condition Summary: 1600 nM compound; source data of Fig. 2c; read-out: Normalized CA II Activity (Mean)
Assay Endpoint: remaining activity at 1.6 µM (%)

Answered examples (3):
- Compound: "NS(=O)(=O)c1ccc(NC(=O)/C=C/c2ccc(-c3ccccc3C(F)(F)F)o2)cc1 [Compound C-0]"
  remaining activity at 1.6 µM [%]: 45.7
- Compound: "NS(=O)(=O)c1ccc(NC(=O)COc2ccccc2OCC(=O)NCCNC(=O)/C=C/c2ccc(-c3ccccc3C(F)(F)F)o2)cc1 [Compound C-2]"
  remaining activity at 1.6 µM [%]: 43.3
- Compound: "NS(=O)(=O)c1ccc(NC(=O)COCC(=O)NCCNC(=O)/C=C/c2ccc(-c3ccccc3C(F)(F)F)o2)cc1 [Compound C-5]"
  remaining activity at 1.6 µM [%]: 56.6

(a) NS(=O)(=O)c1ccc(NCc2ccc(C(=O)NCCNC(=O)/C=C/c3ccc(-c4ccccc4C(F)(F)F)o3)cc2)cc1 [Compound C-1]
(b) NS(=O)(=O)c1ccc(NC(=O)c2ccc(-n3cc(CCC(=O)NCCNC(=O)/C=C/c4ccc(-c5ccccc5C(F)(F)F)o4)nn3)cc2)cc1 [Compound C-4]
(Q) Of the pair a and b , name the member with the lesser recorded remaining activity at 1.6 µM. Answer with the label corresponding to your selection.
(A) a
(a: 43%, b: 65%)

* * *

# Target Entity: MMP-2 (Homo sapiens)
# Construct: purchased Sino Biological 10082-HNAH
# Sequence (P08253 110-660): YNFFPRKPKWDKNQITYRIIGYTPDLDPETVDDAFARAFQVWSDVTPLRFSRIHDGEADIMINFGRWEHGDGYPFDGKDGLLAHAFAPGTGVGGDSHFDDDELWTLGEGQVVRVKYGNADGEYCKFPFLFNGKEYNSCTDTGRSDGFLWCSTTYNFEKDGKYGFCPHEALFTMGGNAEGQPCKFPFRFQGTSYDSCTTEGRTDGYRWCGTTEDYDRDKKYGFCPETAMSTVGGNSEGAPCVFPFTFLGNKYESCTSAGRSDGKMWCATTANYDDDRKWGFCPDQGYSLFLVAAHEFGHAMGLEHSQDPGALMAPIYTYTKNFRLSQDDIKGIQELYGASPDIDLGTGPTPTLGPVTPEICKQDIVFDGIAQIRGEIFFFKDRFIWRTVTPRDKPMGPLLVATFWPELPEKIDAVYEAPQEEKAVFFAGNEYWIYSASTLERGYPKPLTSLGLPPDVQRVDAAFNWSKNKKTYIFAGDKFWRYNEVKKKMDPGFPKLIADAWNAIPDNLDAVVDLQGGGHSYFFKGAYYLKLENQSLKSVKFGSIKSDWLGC
# Protocol Summary: MMP-2 inhibition assay (fluorogenic peptide substrate)
# Format: biochemical
# Condition Summary: MMP-2; concentration 9.75 µM
Assay Endpoint: remaining activity (%)

- Molecule: "Cc1cc(=O)[nH]c(-n2nc(C)c(CCC(=O)NCCNC(=O)CSCCNC(=O)c3cncc(O)c3)c2C)n1 [693+828 Linker 24]"
  remaining activity (%): 82.64
- Molecule: "Cc1cc(=O)[nH]c(-n2nc(C)c(CCC(=O)NCCOCCOCCNC(=O)c3cncc(O)c3)c2C)n1 [693+828 Linker 10]"
  remaining activity (%): 94.74
- Molecule: "Cc1cc(=O)[nH]c(-n2nc(C)c(CCC(=O)NCCSCC(=O)NCc3c[nH]nn3)c2C)n1 [693+787 Linker 24]"
  remaining activity (%): 92.63
- Molecule: "O=C(CNC(=O)NC12CC3CC(CC(C3)C1)C2)NCCCCCCCCNC(=O)c1cncc(O)c1 [66+828 Linker 4]"
  remaining activity (%): 96.24
- Molecule: "Cc1cc(=O)[nH]c(-n2nc(C)c(CCC(=O)NCc3c[nH]nn3)c2C)n1 [693+787 Linker 1]"
  remaining activity (%): 86.30
- Molecule: "O=C(CNC(=O)NC12CC3CC(CC(C3)C1)C2)NCCSCC(=O)NCc1c[nH]nn1 [66+787 Linker 24]"
  remaining activity (%): 92.40
- Molecule: "O=C(C=CCCCCNC(=O)c1cncc(O)c1)CC(=O)NCC12CC3CC(CC(C3)C1)C2 [66+828 Linker 12]"
  remaining activity (%): 93.23
- Molecule: "O=C(Cn1cnc2c(oc3ccccc32)c1=O)NCc1c[nH]nn1 [182+787 Linker 1]"
  remaining activity (%): 84.05

Where do the numbers come from? From paper PMC10023787.
